- system_name: RELA (p65) subunit of heterodimer;p52 subunit (Homo sapiens;Homo sapiens, UniProt Q04206;Q00653 1-307;4-332)
- procedure_details: protein binding microarray; high values mean tight binding
- assay_setup: dsDNA, one strand shown
// values below are reported binding signal
State the answer as a number, implicitly in z-score.

Below are worked cases with known answers.
{"sequence_data": "GAATGTTTCCC", "property_name": "binding signal", "readout_number": 0.797}
{"sequence_data": "CAATGGTTCCT", "property_name": "binding signal", "readout_number": -0.883}

Query string: Quick one: binding signal for CAATGCACCCT ?
Result string: -0.779

Query string: Param item: CAGGATCCCCT
Result string: 1.43

Query string: Param item: GGGGGAACCCC
Result string: 3.23

Query string: Param item: CGGTGTACCCT
Result string: -0.282

Query string: Param item: GAGTTATCCCT
Result string: 0.135

====

- system_name: p52p52 homodimer (Homo sapiens, UniProt Q00653 4-332)
- Sequence: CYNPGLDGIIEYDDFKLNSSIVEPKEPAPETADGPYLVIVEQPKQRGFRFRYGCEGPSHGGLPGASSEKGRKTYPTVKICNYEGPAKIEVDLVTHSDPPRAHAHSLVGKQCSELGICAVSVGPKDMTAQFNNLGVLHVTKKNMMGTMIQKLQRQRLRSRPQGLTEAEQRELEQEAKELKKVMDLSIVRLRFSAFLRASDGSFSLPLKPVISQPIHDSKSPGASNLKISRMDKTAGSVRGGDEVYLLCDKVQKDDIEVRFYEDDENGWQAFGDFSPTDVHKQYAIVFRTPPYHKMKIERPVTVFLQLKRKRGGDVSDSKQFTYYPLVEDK
- procedure_details: protein binding microarray; high values mean tight binding
- assay_setup: dsDNA, one strand shown
// values below are reported binding signal
State the answer as a number, implicitly in z-score.

Below are worked cases with known answers.
{"sequence_data": "GGGGTCATCCT", "binding signal, z-score": -0.115}
{"sequence_data": "CAAAGCGTCCT", "binding signal, z-score": -0.572}
{"sequence_data": "GAGATACCCCT", "binding signal, z-score": 0.576}

Query string: Quick one: binding signal for GAAGTGTCCCT ?
Result string: 0.946

====

- system_name: RELA (p65) subunit of heterodimer;p50 subunit (Homo sapiens;Homo sapiens, UniProt Q04206;P19838 1-307;7-356)
- Sequence (Q04206 1-307, chain 1 of 2): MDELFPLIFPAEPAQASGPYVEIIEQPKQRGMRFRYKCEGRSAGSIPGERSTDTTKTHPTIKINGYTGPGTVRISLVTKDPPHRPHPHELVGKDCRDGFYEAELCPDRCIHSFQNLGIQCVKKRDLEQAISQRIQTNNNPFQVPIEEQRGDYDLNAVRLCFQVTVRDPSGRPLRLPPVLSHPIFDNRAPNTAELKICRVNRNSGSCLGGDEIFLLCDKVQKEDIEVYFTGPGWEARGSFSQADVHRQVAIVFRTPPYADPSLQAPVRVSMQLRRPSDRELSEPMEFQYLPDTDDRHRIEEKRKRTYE
- Sequence (P19838 7-356, chain 2 of 2): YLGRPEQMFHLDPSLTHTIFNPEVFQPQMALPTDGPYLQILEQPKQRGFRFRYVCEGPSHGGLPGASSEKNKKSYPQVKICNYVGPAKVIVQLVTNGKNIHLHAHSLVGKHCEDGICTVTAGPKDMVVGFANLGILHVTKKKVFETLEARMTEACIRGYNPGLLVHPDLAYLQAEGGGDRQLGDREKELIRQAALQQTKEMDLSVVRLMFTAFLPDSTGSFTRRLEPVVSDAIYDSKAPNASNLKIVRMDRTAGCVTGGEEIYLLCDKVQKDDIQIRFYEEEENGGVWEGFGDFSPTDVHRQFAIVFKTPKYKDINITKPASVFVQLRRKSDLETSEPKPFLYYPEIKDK
- procedure_details: protein binding microarray; high values mean tight binding
- assay_setup: dsDNA, one strand shown
Rule: Y for binding signal not less than 0.4 z-score, N for anything less.

{"sequence_data": "CGAGGGTTCCC", "class_label": "N"}
{"sequence_data": "GAGAAAGTCCC", "class_label": "Y"}
{"sequence_data": "AGGTATTTCCC", "class_label": "Y"}
{"sequence_data": "AGGTAGCTCCT", "class_label": "N"}
{"sequence_data": "GGGGTTGTCCC", "class_label": "Y"}
{"sequence_data": "CGATAAGCCCC", "class_label": "N"}
{"sequence_data": "AAATACGTCCC", "class_label": "N"}
{"sequence_data": "AAGAGGCCCCT", "class_label": "N"}

Query string: Given the entry GAATATTCCCT , answer whether its binding signal meets or surpasses 0.4 z-score.
Result string: Y

Query string: Param item: AGGGTGCCCCT
Result string: Y

Query string: Param item: CAGATGTTCCT
Result string: N

Query string: Param item: CAAATAGCCCC
Result string: Y

====

- system_name: RELA (p65) subunit of heterodimer;p52 subunit (Homo sapiens;Homo sapiens, UniProt Q04206;Q00653 1-307;4-332)
- procedure_details: protein binding microarray; high values mean tight binding
- assay_setup: dsDNA, one strand shown
Rule: satisfied for binding signal not less than -0.1 z-score, not satisfied for anything less.

Please review the entries below; each comes with its answer.
{"sequence_data": "CAAGAACCCCC", "class_label": "satisfied"}
{"sequence_data": "AGAGGGACCCT", "class_label": "not satisfied"}
{"sequence_data": "GAGAAAGTCCC", "class_label": "satisfied"}
{"sequence_data": "AGGATAATCCC", "class_label": "satisfied"}
{"sequence_data": "GGATTTTCCCC", "class_label": "satisfied"}
{"sequence_data": "GGGATCGTCCT", "class_label": "not satisfied"}

Query string: Given the entry AAATATGTCCT , answer whether its binding signal meets or surpasses -0.1 z-score.
Result string: not satisfied

Query string: Param item: CAGATCCCCCT
Result string: satisfied

Query string: Param item: CGATTTCCCCT
Result string: satisfied

Query string: Param item: CAGAAGGCCCC
Result string: not satisfied

Query string: Param item: CGGATGGCCCT
Result string: not satisfied

Query string: Param item: CGATTAACCCT
Result string: not satisfied

Query string: Param item: GGGTGTGTCCC
Result string: satisfied

====

// values below are reported binding signal
- system_name: RELARELA (p65 homodimer) (Homo sapiens, UniProt Q04206 1-307)
- Sequence (Q04206 1-307): as the sequence (Q04206 1-307, chain 1 of 2) above
- procedure_details: protein binding microarray; high values mean tight binding
- assay_setup: dsDNA, one strand shown
State the answer as a number, implicitly in z-score.

{"sequence_data": "AAGATGCCCCC", "binding signal / z-score": 0.101}

Query string: # get_value(readout= binding signal, system= RELARELA (p65 homodimer) (Homo sapiens, UniProt Q04206 1-307)) for GAGAGGACCCC
Result string: -0.845

Query string: Param item: CGAGATACCCC
Result string: -0.193

Query string: Param item: CAGTAAATCCT
Result string: -0.441

Query string: Param item: CGAATACCCCT
Result string: 0.147

Query string: Param item: GGATACTTCCT
Result string: 0.213

====

- system_name: RELA (p65) subunit of heterodimer;p52 subunit (Homo sapiens;Homo sapiens, UniProt Q04206;Q00653 1-307;4-332)
- procedure_details: protein binding microarray; high values mean tight binding
- assay_setup: dsDNA, one strand shown
property_name: binding signal
Please don't drop the unit; write it after the number.

{"sequence_data": "AGAGGCGTCCC", "binding signal": "-0.01 z-score"}
{"sequence_data": "CGATTAGTCCT", "binding signal": "-0.861 z-score"}

Query string: Quick one: binding signal for CGGTTGCTCCT ?
Result string: -0.989 z-score

Query string: Param item: CGGAGCGCCCT
Result string: -0.911 z-score

Query string: Param item: CGGTTTACCCC
Result string: 1.01 z-score

Query string: Param item: CAAATTACCCT
Result string: 0.929 z-score

Query string: Param item: CGAGAGCCCCT
Result string: 0.418 z-score

Query string: Param item: AGGGGACTCCC
Result string: 2.28 z-score

Query string: Param item: CAATACATCCC
Result string: -0.7 z-score

Query string: Param item: AGGATGTTCCC
Result string: 0.0834 z-score

====

// values below are reported binding signal
- system_name: C-Rel subunit;p50 subunit (Homo sapiens;Homo sapiens, UniProt Q04864;P19838 1-285;7-356)
- Sequence (Q04864 1-285, chain 1 of 2): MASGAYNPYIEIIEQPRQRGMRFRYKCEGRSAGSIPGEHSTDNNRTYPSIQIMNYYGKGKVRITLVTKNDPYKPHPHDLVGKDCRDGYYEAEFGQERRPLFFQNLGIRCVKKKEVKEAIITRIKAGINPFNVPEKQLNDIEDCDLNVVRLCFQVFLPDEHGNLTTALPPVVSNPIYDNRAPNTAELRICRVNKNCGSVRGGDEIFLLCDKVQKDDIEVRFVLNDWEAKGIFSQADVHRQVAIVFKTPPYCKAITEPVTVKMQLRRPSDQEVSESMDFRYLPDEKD
- Sequence (P19838 7-356, chain 2 of 2): as the sequence (P19838 7-356, chain 2 of 2) above
- procedure_details: protein binding microarray; high values mean tight binding
- assay_setup: dsDNA, one strand shown
Please don't drop the unit; write it after the number.

Query string: Quick one: binding signal for CAGTTCTTCCC ?
Result string: 0.641 z-score

Query string: Param item: GAAAATATCCT
Result string: -0.995 z-score

Query string: Param item: AAAATAGTCCT
Result string: -0.761 z-score

====

- system_name: RELA (p65) subunit of heterodimer;p52 subunit (Homo sapiens;Homo sapiens, UniProt Q04206;Q00653 1-307;4-332)
- procedure_details: protein binding microarray; high values mean tight binding
- assay_setup: dsDNA, one strand shown
property_name: binding signal

Below are worked cases with known answers.
{"sequence_data": "CGGATGGTCCC", "binding signal": "0.027 z-score"}
{"sequence_data": "GAGTTAATCCC", "binding signal": "-0.217 z-score"}

Query string: Quick one: binding signal for CGGAATCCCCT ?
Result string: 2.13 z-score

Query string: Param item: CGAATGTCCCC
Result string: 1.07 z-score

Query string: Param item: CAGTTACTCCT
Result string: -0.94 z-score

Query string: Param item: CGGAAGCTCCT
Result string: -1.08 z-score

Query string: Param item: CAAATTCCCCC
Result string: 2.32 z-score

Query string: Param item: AGATTACTCCT
Result string: -0.875 z-score

Query string: Param item: AGGATAGCCCT
Result string: -0.902 z-score

====

- system_name: C-Rel subunit;p50 subunit (Homo sapiens;Homo sapiens, UniProt Q04864;P19838 1-285;7-356)
- procedure_details: protein binding microarray; high values mean tight binding
- assay_setup: dsDNA, one strand shown
property_name: binding signal (z-score)
State the answer as a number, implicitly in z-score.

Below are worked cases with known answers.
{"sequence_data": "GGGGGAACCCC", "readout_number": 2.58}
{"sequence_data": "AGAGGCCTCCT", "readout_number": -1.66}
{"sequence_data": "AGGTATTTCCC", "readout_number": 1.43}
{"sequence_data": "CAAGAACCCCC", "readout_number": 1.04}

Okay, now this sequence:
Query string: Quick one: binding signal for CGGAATTTCCT ?
Result string: 0.843
